Data provenance: patent US12077503B2

Tested on: redroot pigweed (Amaranthus retroflexus)
Experiment: Test G Post-Emergence Protocol
Assay type: in vivo
Settings: Amaranthus retroflexus, post-emergence, 312 h, 250 g ai/ha, evaluated after 13 days, read-out: damage to plant, Pigweed, Redroot (100=total damage to plant; 0=no damage to plant)
So I've got a bunch of molecules here, and I need their pest or weed control at 250 g/ha values.
Value expressed in %; do not type the unit.

Looking up CN1C[C@H](c2ccc3c(c2)OCCO3)[C@@H](C(=O)Nc2cccc(F)c2F)C1=O (racemic) , I found its pest or weed control at 250 g/ha recorded as 0

Looking up CN1C[C@@H](c2ccc(C(F)(F)F)cc2)[C@@](O)(C(=O)Nc2cccc(F)c2F)C1=O (racemic) , I found its pest or weed control at 250 g/ha recorded as 10

Looking up CN1C[C@@H](c2ccc(C(F)(F)F)cc2)[C@H](C(=O)Nc2cncc(Cl)n2)C1=O (racemic) , I found its pest or weed control at 250 g/ha recorded as 0

Looking up CN1C[C@H](c2ccc(C(F)(F)F)cc2)[C@@H](C(=O)Nc2ccc(F)c(Cl)c2)C1=O (racemic) , I found its pest or weed control at 250 g/ha recorded as 20

Looking up COC(=O)c1cc([C@H]2CN(C)C(=O)[C@@H]2C(=O)Nc2ccccc2F)ccc1Cl (racemic) , I found its pest or weed control at 250 g/ha recorded as 20

Looking up CN1C[C@@H](c2ccc(C(F)(F)F)cc2)[C@H](C(=O)Nc2cccc(Cl)c2C#N)C1=O (racemic) , I found its pest or weed control at 250 g/ha recorded as 40

Looking up CN1C[C@H](c2ccc3ccccc3c2)[C@@H](C(=O)Nc2cccc(F)c2F)C1=O (racemic) , I found its pest or weed control at 250 g/ha recorded as 0

---

So I've got a bunch of compounds here, and I need their Plant response rating, Barnyardgrass values.
System: barnyardgrass (Echinochloa crus-galli)
Test: Test A postemergence
Assay type: in vivo
Conditions: Postemergence, 500 g ai/ha; 0 to 100 scale where 0 is no effect and 100 is complete control

Looking up CCc1cccc(C2CN(C)C(=O)C2C(=O)Nc2ccccc2F)c1 (centres unmarked) , I found its Plant response rating, Barnyardgrass recorded as 100

Looking up O=C(Nc1cccc(F)c1F)C1C(=O)N(CC=CCl)CC1c1cccc(C(F)(F)F)c1 (centres unmarked) , I found its Plant response rating, Barnyardgrass recorded as 50

Looking up Cc1ccc(C2CNC(=O)C2C(=O)Nc2ccccc2F)c(F)c1 (racemic) , I found its Plant response rating, Barnyardgrass recorded as 90

Looking up O=C1NCC(c2ccc(Oc3ccccc3)cc2)C1C(=O)Nc1ccccc1Cl (racemic) , I found its Plant response rating, Barnyardgrass recorded as 0

Looking up O=C1NCC(c2cc(C(F)(F)F)ccc2F)C1C(=O)Nc1cccc(F)c1F (centres unmarked) , I found its Plant response rating, Barnyardgrass recorded as 90

Looking up CN1CC(c2ccc(C(F)(F)F)cc2)C(C(=O)Nc2ccc(F)cc2F)C1=O (centres unmarked) , I found its Plant response rating, Barnyardgrass recorded as 90

Looking up C=CCN1CC(c2cccc(C(F)(F)F)c2)C(C(=O)Nc2cccc(F)c2F)C1=O (centres unmarked) , I found its Plant response rating, Barnyardgrass recorded as 70

Looking up O=C(Nc1ccccc1F)C1C(=O)N(CC=CBr)CC1c1cccc(C(F)(F)F)c1 (centres unmarked) , I found its Plant response rating, Barnyardgrass recorded as 20

Looking up O=C(Nc1cccc(F)c1F)C1C(=O)N(CC=CBr)CC1c1cccc(C(F)(F)F)c1 (centres unmarked) , I found its Plant response rating, Barnyardgrass recorded as 20

Looking up O=C1NCC(c2ccnc(C(F)(F)F)c2)C1C(=O)Nc1cccc(F)c1F (racemic) , I found its Plant response rating, Barnyardgrass recorded as 90

Looking up Cc1c(F)cccc1NC(=O)C1C(=O)N(C)CC1c1cccc(C(F)(F)F)c1 (centres unmarked) , I found its Plant response rating, Barnyardgrass recorded as 100

Looking up O=C1NCC(c2cc(F)c(F)cc2F)C1C(=O)Nc1ccc(F)c(F)c1F (centres unmarked) , I found its Plant response rating, Barnyardgrass recorded as 90

Looking up CN1CC(c2ccc(Br)cc2)C(C(=O)Nc2ccccc2S(C)(=O)=O)C1=O (centres unmarked) , I found its Plant response rating, Barnyardgrass recorded as 90

Looking up O=C(Nc1ccccc1F)C1C(=O)N(C2C=CCCC2)CC1c1cccc(C(F)(F)F)c1 (centres unmarked) , I found its Plant response rating, Barnyardgrass recorded as 70
